target: DLG1_1, Q12959; test: holdup assay; set-up: key: below the threshold = too weak to quantify, mostly under pKd 3.1 to 4; details: plain residues with an end cap or a label only (N-terminal biotin on a linker: ado-ado)
parameterMeasured: pKd

>>> reportedvalue("RHGSCVETSL [TMEM151B, Q8IW70]")
4.23
>>> reportedvalue("GQEEQVTTRL [TRPC5, Q9UL62]")
"below the threshold"
>>> reportedvalue("RKPKPSSSCC [RAB9A, P51151]")
"below the threshold"
>>> reportedvalue("VRNLPESEEL [MYOZ3, Q8TDC0]")
"below the threshold"
